ASSAY INFO: CCTE_Simmons_CellTiterGLO_HEK293T: Viability Assessment in CCTE's Assays for Thyroperoxidase (TPO) Inhibition, Simmons Lab (AID 2283665)
Experimental: CCTE_Simmons_CellTiterGLO_HEK293T is a cell-based, single-readout assay that uses HEK293T, a human kidney cell line, with measurements taken at 24 hours after chemical dosing in a 384-well plate.CCTE_Simmons_CellTiterGLO_HEK293T is the assay component measured from the CCTE_Simmons_CellTiterGLO_HEK293T assay. It is designed to make measurements of ATP content, a form of viability reporter, as detected with bioluminescence signals by Luciferase-coupled ATP quantitation technology. […]
Inconclusive results are not listed. Activity calls are given as the source filed them. How the source made its calls: active means hit-call score of the fitted dose curve at least 0.9, where 1 is the maximum; inconclusive means response in the unintended direction; inactive means score below 0.9.
Give one outcome, nothing more. List: active, inactive

Solved entries (count: 3):
Lookup: Query: recorded result category for CNC(=O)CSP(=S)(OC)OC in this test
Found: inactive

Lookup: Try N#CN next.
Found: inactive

Lookup: O=C1c2ccccc2C(=O)N1SC(Cl)(Cl)Cl ?
Found: active

More entries:
Lookup: I'd appreciate the recorded outcome for COc1nn(CSP(=S)(OC)OC)c(=O)s1 from this test.
Found: inactive

Lookup: Again, but for CCCN(CCOc1c(Cl)cc(Cl)cc1Cl)C(=O)n1ccnc1
Found: active

Lookup: What about O=C(Nc1ccccc1)Nc1cnns1 ?
Found: inactive

All figures here come from PubChem BioAssay (EPA / NIEHS).
